Molecular target: Runt-related transcription factor 1 (Homo sapiens) + Core-binding factor subunit beta (Homo sapiens) (UniProt Q01196+Q13951)
Sequence (Q01196 whole entry, looked up): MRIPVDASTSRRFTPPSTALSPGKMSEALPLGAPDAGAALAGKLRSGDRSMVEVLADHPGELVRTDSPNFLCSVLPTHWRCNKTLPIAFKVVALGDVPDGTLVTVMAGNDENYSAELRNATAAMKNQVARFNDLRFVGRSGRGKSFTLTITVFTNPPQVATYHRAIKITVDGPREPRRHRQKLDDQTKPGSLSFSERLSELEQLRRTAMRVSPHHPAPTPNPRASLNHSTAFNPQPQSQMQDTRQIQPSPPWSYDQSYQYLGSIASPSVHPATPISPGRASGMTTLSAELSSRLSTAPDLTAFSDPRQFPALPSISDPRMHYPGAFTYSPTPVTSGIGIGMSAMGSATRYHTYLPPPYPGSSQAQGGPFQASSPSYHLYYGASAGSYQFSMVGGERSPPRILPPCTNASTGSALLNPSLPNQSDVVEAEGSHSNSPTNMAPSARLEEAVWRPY
Sequence (Q13951 whole entry, looked up): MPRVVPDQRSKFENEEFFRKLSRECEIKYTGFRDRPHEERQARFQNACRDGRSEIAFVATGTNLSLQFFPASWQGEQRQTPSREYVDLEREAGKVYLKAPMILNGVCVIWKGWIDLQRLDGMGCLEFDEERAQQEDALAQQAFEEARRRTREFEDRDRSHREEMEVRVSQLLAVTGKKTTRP
Test: qHTS Assay for Compounds Blocking the Interaction Between CBF-beta and RUNX1 for the Treatment of Acute Myeloid Leukemia: Hit Validation; also: nearly all actives have a fitted effect of over 60% in size
Settings: AlphaScreen CBFb-His/RUNX1-biotin binding; series mostly up to 59.8 µM
About 100 (6.7%) of roughly 1,500 compounds were called active. About 7% were inconclusive and are not listed. Calls follow the shape of the dose curve; as a rule, active = well fitted inhibition curve with a large enough effect; inconclusive = small, poorly fitted or top-dose-only effect, or effect the other way; inactive = flat fitted curve, though single readings scatter. What follows is part of a selection rich in actives, with near analogues and random picks from the rest.
Labels: yes (active), no (inactive)

[
  {
    "compound": "Cn1c(=O)c2c(Nc3ccc(F)cc3)cc(=O)n(-c3ccccc3)c2n(C)c1=O",
    "answer.label": "no"
  },
  {
    "compound": "Cc1cc(C)n2cnnc2n1",
    "answer.label": "no"
  },
  {
    "compound": "O=C1OCC2OC(O)C(O)C(O)C2OC(=O)c2cc(O)c(O)c(O)c2-c2c(O)c(O)c3oc(=O)c4c(c(O)c(O)c5oc(=O)c2c3c54)-c2c1cc(O)c(O)c2O (configuration not stated)",
    "answer.label": "yes"
  },
  {
    "compound": "Cc1ccc(S(=O)(=O)NC(=O)Nc2ccc(OC(F)F)cc2)cc1",
    "answer.label": "no"
  },
  {
    "compound": "Cc1cc(O)c(C=O)c2c1C(=O)Oc1c(COC(=O)/C=C/C(=O)O)c(O)c(C(=O)O)c(C)c1O2",
    "answer.label": "yes"
  },
  {
    "compound": "N#Cc1c(-c2ccccc2Cl)c2c([nH]c1=O)-c1ccccc1OC2",
    "answer.label": "no"
  },
  {
    "compound": "NC[C@@H](O)c1ccc(O)c(O)c1",
    "answer.label": "yes"
  },
  {
    "compound": "Nn1c(SCC(=O)Nc2ccc(S(N)(=O)=O)cc2)nnc1C(F)(F)F",
    "answer.label": "no"
  },
  {
    "compound": "O=C(N/N=C/c1ccncc1)c1cnccn1",
    "answer.label": "no"
  },
  {
    "compound": "CNC(=O)/C(C#N)=C1\\SC(Cc2ccc(F)cc2)C(=O)N1c1ccccc1C (configuration not stated)",
    "answer.label": "no"
  },
  {
    "compound": "Cc1ccc(C(=O)CSc2nnc(-c3snnc3C)n2C2CC2)cc1",
    "answer.label": "no"
  },
  {
    "compound": "O=C(O[C@@H]1OC2COC(=O)c3cc(O)c(O)c(O)c3-c3c(cc(O)c(O)c3O)C(=O)O[C@@H]([C@H]1O)[C@@H]2O)c1cc(O)c(O)c(O)c1",
    "answer.label": "yes"
  },
  {
    "compound": "COc1ccc(-n2c(=S)[nH]c(=O)c3cccnc32)cc1",
    "answer.label": "no"
  },
  {
    "compound": "C=CCn1c(=O)c2ccccc2n2nnc(C(=O)OCC)c12",
    "answer.label": "no"
  },
  {
    "compound": "Cn1c(=O)c2cc3ccccc3nc2n(C)c1=O",
    "answer.label": "no"
  },
  {
    "compound": "Cc1ccc(NC(=O)CSc2n[nH]c(N)n2)cc1S(=O)(=O)N1CCOCC1",
    "answer.label": "no"
  },
  {
    "compound": "CCOc1ccc(/C=C2\\CCc3ccccc3C2=O)cc1",
    "answer.label": "no"
  },
  {
    "compound": "Cc1ccc(-c2nn[nH]n2)cc1Cl",
    "answer.label": "no"
  },
  {
    "compound": "COc1ccc(C2=NOC(CNC(=O)c3ccccc3Br)C2)c(OC)c1 (configuration not stated)",
    "answer.label": "no"
  },
  {
    "compound": "O=C(COc1ccc([N+](=O)[O-])cc1Cl)N1CCOCC1",
    "answer.label": "no"
  },
  {
    "compound": "CC(C)(NC(=O)c1cc(Cl)c2ccccc2c1O)C(=O)O",
    "answer.label": "no"
  },
  {
    "compound": "COCCn1c(-c2ccc(Cl)cc2)nc2oc3cc(OC)ccc3c(=O)c2c1=O",
    "answer.label": "no"
  }
]

* * *

Target: Runt-related transcription factor 1 (Homo sapiens) + Core-binding factor subunit beta (Homo sapiens) (UniProt Q01196+Q13951)
Assay: qHTS Assay for Compounds Blocking the Interaction Between CBF-beta and RUNX1 for the Treatment of Acute Myeloid Leukemia: Hit Validation; also: nearly all actives have a fitted effect of over 60% in size
Conditions: AlphaScreen CBFb-His/RUNX1-biotin binding; series mostly up to 59.8 µM
The campaign covered roughly 1,500 compounds. About 100 (6.7%) were called active. Inconclusive results (about 7%) are left out. Calls come from the whole dose curve; as a rule, active = well fitted inhibition curve with a large enough effect; inconclusive = small, poorly fitted or top-dose-only effect, or effect the other way; inactive = flat fitted curve, though single readings scatter. Only a selection was taken, and actives are over-represented in it overall.
Labels: active, inactive

[
  {
    "molecule": "COC(=O)c1[nH]c2cc(OC)ccc2c1NC(=O)c1c(F)cccc1F",
    "answer.label": "inactive"
  },
  {
    "molecule": "COC(=O)[C@H](CC(C)C)NC(=O)N1CCCCC1C (some centres not stated)",
    "answer.label": "inactive"
  },
  {
    "molecule": "COC(=O)C(=Cc1ccccc1[N+](=O)[O-])C(=O)OC",
    "answer.label": "inactive"
  },
  {
    "molecule": "O=P(O)(O)c1cc(-c2ccccc2)oc1-c1ccccc1",
    "answer.label": "inactive"
  },
  {
    "molecule": "COc1ccccc1NC(=S)NC1CCCCCCCCCCC1",
    "answer.label": "inactive"
  },
  {
    "molecule": "Clc1ccccc1/C=C/c1nc(-c2ccccn2)no1",
    "answer.label": "inactive"
  },
  {
    "molecule": "CCO/C=C1\\SC(=S)N(c2ccc(Cl)cc2)C1=O",
    "answer.label": "inactive"
  },
  {
    "molecule": "C=CCn1c(SCc2ccccc2Cl)nnc1-c1sc2nc(C)cc(C)c2c1N",
    "answer.label": "inactive"
  },
  {
    "molecule": "c1ccc(-c2ccc(-c3ccccn3)nn2)nc1",
    "answer.label": "active"
  },
  {
    "molecule": "O=[N+]([O-])c1ccccc1CSc1ccccn1",
    "answer.label": "inactive"
  },
  {
    "molecule": "c1ccc(-c2ccc(-c3ccccn3)s2)nc1",
    "answer.label": "inactive"
  },
  {
    "molecule": "c1ccc(CSc2ccc(-c3ccccn3)nn2)nc1",
    "answer.label": "active"
  }
]

* * *

Target: Runt-related transcription factor 1 (Homo sapiens) + Core-binding factor subunit beta (Homo sapiens) (UniProt Q01196+Q13951)
Assay: qHTS Assay for Compounds Blocking the Interaction Between CBF-beta and RUNX1 for the Treatment of Acute Myeloid Leukemia: Hit Validation; also: nearly all actives have a fitted effect of over 60% in size; also: potency is read from the fitted curve at half-maximal effect
Details: AlphaScreen CBFb-His/RUNX1-biotin binding; series mostly up to 59.8 µM
In all, about 1,500 compounds went through this assay and about 100 (6.7%) were called active. Roughly 7% stayed inconclusive and do not appear here. Only a selection was taken, and actives are over-represented in it overall.

[
  {
    "structure.as.smiles": "COc1ccc(/C(C#N)=C/c2ccccn2)cc1",
    "Potency": "inactive"
  },
  {
    "structure.as.smiles": "O=C(O)COCC(=O)N1CCN(C2c3ccccc3-c3ccccc32)CC1",
    "Potency": "inactive"
  },
  {
    "structure.as.smiles": "CC(C)N(CCn1cnc2c([nH]c3ccccc32)c1=O)C(C)C",
    "Potency": "inactive"
  },
  {
    "structure.as.smiles": "Cc1ccc(Cn2c(N/N=C/c3ccncc3)nc3c2c(=O)n(C)c(=O)n3C)cc1",
    "Potency": "inactive"
  },
  {
    "structure.as.smiles": "CCOC(=O)/C(C#N)=C/Nc1ccccc1OC(F)(F)F",
    "Potency": "inactive"
  },
  {
    "structure.as.smiles": "CCOC(=O)/C(C#N)=C/Nc1ccsc1C(C)=O",
    "Potency": "inactive"
  },
  {
    "structure.as.smiles": "Cc1ccc(/C=N/N2CCN(c3ccccn3)CC2)o1",
    "Potency": "inactive"
  },
  {
    "structure.as.smiles": "OCc1ncc(-c2ccccc2)s1",
    "Potency": "inactive"
  },
  {
    "structure.as.smiles": "CCN(CCS(=O)(=O)c1ccc(Cl)cc1)C(=O)Nc1ccccc1",
    "Potency": "inactive"
  },
  {
    "structure.as.smiles": "N#C/C(=C\\c1ccc(OC(=O)c2ccccn2)cc1)C(N)=O",
    "Potency": "4.34 µM (active)"
  },
  {
    "structure.as.smiles": "CC(=O)c1c(C)nc(Nc2nc3ccccc3s2)nc1C",
    "Potency": "inactive"
  },
  {
    "structure.as.smiles": "Brc1ccc(C2Nc3cccc4cccc(c34)N2)o1",
    "Potency": "14.1 µM (active)"
  }
]
